The values you see were collected from patent US20050181485A1.

System: cellobiose dehydrogenase
Format: biochemical, Coriolus hirsutus
Details: 1 mM; incubation at 4° C. overnight
Entries annotated with measured Relative activity

>  <molecule>
[Ba+2].[Cl-].[Cl-] [BaCl2]

>  <units_text>
%

>  <Relative activity>
71

$$$$
>  <molecule>
CCCCCCCCCCCCOS(=O)(=O)[O-].[Na+] [SDS]

>  <units_text>
%

>  <Relative activity>
0

$$$$
>  <molecule>
[Cl-].[Cl-].[Zn+2] [ZnCl2]

>  <units_text>
%

>  <Relative activity>
32

$$$$
>  <molecule>
[Cl][Ni][Cl] [NiCl2]

>  <units_text>
%

>  <Relative activity>
60

$$$$
>  <molecule>
O=S(=O)([O-])[O-].[Cu+2] [CuSO4]

>  <units_text>
%

>  <Relative activity>
82

$$$$
>  <molecule>
[Cl][Hg][Cl] [HgCl2]

>  <units_text>
%

>  <Relative activity>
0

$$$$
>  <molecule>
O=S(=O)([O-])[O-].[Zn+2] [ZnSO4]

>  <units_text>
%

>  <Relative activity>
72

$$$$
